Please go through the items and note down their activity at 25 µM.
# System: M. mycetomatis genome strain MM55
# protocol: CLSI M38-A2 based in vitro susceptibility screening (XTT or resazurin), growth at fixed concentration
# Assay type: cell-based, Madurella mycetomatis
# measurementSetup: Madurella mycetomatis, 25 uM, replicate A; read-out: Percentage survival at 25um, 25 um A
Value expressed in %; do not type the unit.

Given the compound O=C(NCc1ccc2c3c(cccc13)C(=O)N2)c1cccs1 , what is its reported activity at 25 µM?
79.8

Given the compound N#CCN1C(=O)COc2cc(F)c(N3C(=O)c4ccccc4C3=O)cc21 , what is its reported activity at 25 µM?
78.3

Given the compound Cc1ccn2c(C(=O)NCc3ccccc3)c(C)nc2c1 , what is its reported activity at 25 µM?
90.2

Given the compound CCCCc1ccc(S(=O)(=O)Nc2cc(C)on2)cc1 , what is its reported activity at 25 µM?
90.5

Given the compound CC(=O)Nc1cc(NS(=O)(=O)c2ccc(Cl)cc2)cc2c(Cl)n[nH]c12 , what is its reported activity at 25 µM?
80.2

Given the compound COc1cccc(N2CCN(C3=Nc4c(F)cccc4[C@H](CC(=O)O)N3c3cc(C(F)(F)F)ccc3OC)CC2)c1 , what is its reported activity at 25 µM?
89.7

Given the compound COc1cc2c(O)c3c(c(-c4ccc5c(c4)OCO5)c2cc1OC)C(=O)OC3 , what is its reported activity at 25 µM?
79.5

Given the compound O=C(NCCN1CCCCC1)c1cccc(C(F)(F)F)c1 , what is its reported activity at 25 µM?
87.8

Given the compound O=P(O)(O)C(CCCc1cccc(Oc2ccccc2)c1)S(=O)(=O)O (centres unmarked) , what is its reported activity at 25 µM?
82.3

Given the compound CCCCCCCCCN1C[C@@H](O)[C@H](O)[C@@H](O)[C@@H]1CO , what is its reported activity at 25 µM?
92

Given the compound O=C(NC12CC3CC(CC(C3)C1)C2)c1cc2ccccc2[nH]1 , what is its reported activity at 25 µM?
79.8

* * *

# Test system: M. mycetomatis genome strain MM55
# protocol: CLSI M38-A2 based in vitro susceptibility screening (XTT or resazurin), growth at fixed concentration
# Format: cell-based, Madurella mycetomatis
# measurementSetup: Madurella mycetomatis, 25 uM, replicate A; read-out: Percentage survival at 25um, 25 um A
Please go through the items and note down their activity at 25 µM.
Answer format: value, then unit.

Given the compound C[C@@H](NC(=O)c1ccccc1-c1ccccc1)B(O)O , what is its reported activity at 25 µM?
92.1%

Given the compound CN(Cc1ccc(C(C)(C)C)cc1)Cc1cccc2ccccc12 , what is its reported activity at 25 µM?
58.2%

Given the compound NNC(=O)c1ccncc1 , what is its reported activity at 25 µM?
90.1%

Given the compound Nc1nc(O)ncc1F , what is its reported activity at 25 µM?
87.6%

* * *

# Test system: M. mycetomatis genome strain MM55
# protocol: CLSI M38-A2 based in vitro susceptibility screening (XTT or resazurin), growth at fixed concentration
# Assay type: cell-based, Madurella mycetomatis
# measurementSetup: Madurella mycetomatis, 25 uM, replicate C, M. mycetomatis MM55; read-out: Percentage survival at 25um, 25 uM C
Please go through the items and note down their activity at 25 µM.
Value expressed in %; do not type the unit.

Given the compound Clc1cc2nc(C3CCNCC3)n(Cc3ccc(CNCCc4cnc[nH]4)cc3)c2cc1Cl , what is its reported activity at 25 µM?
71.1

Given the compound COc1ccc(NC(=O)CC2Sc3ncnn3C2=O)cc1 (centres unmarked) , what is its reported activity at 25 µM?
70.7

Given the compound CC(C)(C)c1ccc(OCCn2nc(C(=O)O)c3ccccc3c2=O)cc1 , what is its reported activity at 25 µM?
69.2

Given the compound C(=C\c1nc2ccccc2[nH]1)/c1ccc2c(c1)OCO2 , what is its reported activity at 25 µM?
69.8

Given the compound CC(=O)O[C@H]1C[C@@]2(C)[C@@H](C[C@@H](O)[C@H]3[C@@]4(C)CC[C@@H](O)[C@@H](C)[C@@H]4CC[C@@]32C)/C1=C(\CCC=C(C)C)C(=O)O , what is its reported activity at 25 µM?
71.6
